Test system: MDA-MB-231
method: NCI tumour cell line growth inhibition, 48 h
The source made the active and inactive calls. No stated cut-off is given here; in the data, active = GI50 up to about 1.1 µM and inactive = higher.
As shown below, each of these compounds has a reported GI50 value.

>>> result("OC1c2ccccc2CCC1C(O)(C(F)(F)F)C(F)(F)F (stereo not given)")
"11 µM (inactive)"
>>> result("CN(CCc1ccc(N)cc1)[C@H]1CCCC[C@H]1N1CCCC1")
"> 100 µM (inactive)"
>>> result("O=C(Nc1ccc(Cl)cc1C(F)(F)F)C(=O)Nn1c(S)nc2ccccc2c1=O")
"> 100 µM (inactive)"
>>> result("CCCC(=O)N[C@H]1CCc2cc(OC)c(OC)c(OC)c2-c2ccc(SC)c(=O)cc21")
"< 0.01 µM (active)"

# compound "COc1ccc(C(=O)/C=C/c2ccc(OCCSCCCCCCCCCCSCCOc3ccc(/C=C/C(=O)c4ccc(OC)cc4)cc3)cc2)cc1" ; its GI50 = > 100 µM (inactive)

----------
Test system: T47D
method: NCI tumour cell line growth inhibition, 48 h
The source made the active and inactive calls. Cut-off read from the data, not from the text of the source: active = GI50 up to about 1.1 µM and inactive = higher.
As shown below, each of these compounds has a reported GI50 value.

>>> result("CC1CSC(=S)N1C(=O)N1C(=S)SCC1C (stereo not drawn)")
"28.6 µM (inactive)"
>>> result("COC(=O)C(=O)C(C(=O)OC)C(=O)C(=O)Nc1ccccc1C(N)=O (stereo not drawn)")
"> 100 µM (inactive)"

Please turn your attention to the following entry.
Lab note: compound "COc1ccc([C@]23CCN4COC[C@@H]([C@H]42)C2(CC3)OCC(C)(C)CO2)cc1OC" tested on T47D; recorded GI50 was 66.5 µM (inactive)

----------
As shown below, each of these compounds has a reported GI50 value.
Test system: ACHN
method: NCI tumour cell line growth inhibition, 48 h
Calls of active or inactive are those of the source. Cut-off read from the data, not from the text of the source: active = GI50 up to about 1.1 µM and inactive = higher.

Reference set (3 entries):
>>> result("O=C(/C=C/c1ccccc1)Oc1ccc(C(=O)/C=C/c2ccccc2)cc1")
"11.9 µM (inactive)"
>>> result("NNC(=O)CS(=O)(=O)Nc1ncccn1")
"> 100 µM (inactive)"
>>> result("NS(=O)(=O)c1nn2c(Br)c(-c3ccccc3)nc2s1")
"4.45 µM (inactive)"

# compound "C=C(C)[C@H]1C2=CC(C(=O)OC)=C(C[C@H](C(=C)C)[C@@H](O)[C@@H](O)C3=C[C@H]1OC3=O)O2" ; its GI50 = > 100 µM (inactive)

# compound "CCCCCCc1cc2cc(C(=O)Nc3ccccc3)c(=N)oc2cc1O" ; its GI50 = 3.44 µM (inactive)

# compound "CC[C@@H](CCCC[C@@H]1CC[C@H]2CC(=O)C[C@@H]12)OC" ; its GI50 = > 100 µM (inactive)

----------
Test system: SF-295
method: NCI tumour cell line growth inhibition, 48 h
Activity calls are given as the source filed them. Cut-off read from the data, not from the text of the source: active = GI50 up to about 1.1 µM and inactive = higher.
Please state which outcome applies, choosing from Y = active, N = inactive

Check the results log: what was the call for "COc1ccc([C@]23CCN4COC[C@@H]([C@H]42)C2(CC3)OCC(C)(C)CO2)cc1OC" ?
N

----------
Test system: NCI-H23
method: NCI tumour cell line growth inhibition, 48 h
Calls of active or inactive are those of the source. No stated cut-off is given here; in the data, active = GI50 up to about 1.1 µM and inactive = higher.
Please state which outcome applies, choosing from true (1) for active, false (0) for inactive

>>> assignedlabel("COC(=O)C(=O)C(C(=O)OC)C(=O)C(=O)Nc1ccccc1C(N)=O (stereo not given)")
"false (0)"
>>> assignedlabel("O=C(OCCC12CC3CC(CC(C3)C1)C2)c1ccc(NCc2cc(O)ccc2O)cc1")
"true (1)"
>>> assignedlabel("CC(C)=CCC[C@@H](C)C1=C(O)C(=O)C(C)=C(Nc2ccccc2I)C1=O")
"false (0)"
>>> assignedlabel("COc1cc(C(c2ccc3c(c2)OCO3)N2C(=O)CCC2C(=O)O)cc(OC)c1OC (stereo not given)")
"false (0)"
>>> assignedlabel("c1ccc2c(c1)c1c(c3ccccc32)CN2CCCC2C1 (stereo not given)")
"false (0)"

Read the next record carefully.
Check the results log: what was the call for C=CC(Br)(CBr)CCC(Br)C(C)C (stereo not given) ?
false (0)
